B1: LINE1-mini (parent)
chain: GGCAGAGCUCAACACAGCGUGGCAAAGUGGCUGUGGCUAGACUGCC

# Variants of: B1
# Assay method text: self-cleavage, relative activity (ratio to wild type); higher = more cleavage; in vitro, sequencing; the parent is a self-cleaving ribozyme
Value type: self-cleavage

- Mutation key: "C13U G21C"
  Value type: "self-cleavage"
  Reported: 0.25
- Mutation key: "U9C C42A"
  Value type: "self-cleavage"
  Reported: 0.03
- Mutation key: "U34G C37U"
  Value type: "self-cleavage"
  Reported: 0.1
- Mutation key: "C15G C18U"
  Value type: "self-cleavage"
  Reported: 0.04
- Mutation key: "G5A A6U"
  Value type: "self-cleavage"
  Reported: 0.12
- Mutation key: "G22A G30U"
  Value type: "self-cleavage"
  Reported: 0.96
- Mutation key: "A41C C45U"
  Value type: "self-cleavage"
  Reported: 0.1
- Mutation key: "C10A A11C"
  Value type: "self-cleavage"
  Reported: 0.02
- Mutation key: "C18U G40A"
  Value type: "self-cleavage"
  Reported: 0.1
- Mutation key: "G1U A11G"
  Value type: "self-cleavage"
  Reported: 0.02
- Mutation key: "G1C G22C"
  Value type: "self-cleavage"
  Reported: 0.19
- Mutation key: "A12C U28A"
  Value type: "self-cleavage"
  Reported: 0.02
- Mutation key: "A11G G22C"
  Value type: "self-cleavage"
  Reported: 0.02
- Mutation key: "G29A C31U"
  Value type: "self-cleavage"
  Reported: 0.95
- Mutation key: "U32G U43G"
  Value type: "self-cleavage"
  Reported: 0.04
- Mutation key: "C15A G35A"
  Value type: "self-cleavage"
  Reported: 0.1
- Mutation key: "C10G C45G"
  Value type: "self-cleavage"
  Reported: 0.02
- Mutation key: "G7U U20G"
  Value type: "self-cleavage"
  Reported: 0.08
- Mutation key: "A12U G29C"
  Value type: "self-cleavage"
  Reported: 0.05
- Mutation key: "C23U C46A"
  Value type: "self-cleavage"
  Reported: 1.4
- Mutation key: "G2U U28A"
  Value type: "self-cleavage"
  Reported: 0.07
- Mutation key: "G2C A39G"
  Value type: "self-cleavage"
  Reported: 0.09
- Mutation key: "C3G G19C"
  Value type: "self-cleavage"
  Reported: 0.16
- Mutation key: "A26C U34C"
  Value type: "self-cleavage"
  Reported: 0.33
- Mutation key: "G22U A39C"
  Value type: "self-cleavage"
  Reported: 0.14
- Mutation key: "G2C A26C"
  Value type: "self-cleavage"
  Reported: 0.11
- Mutation key: "G27U G30U"
  Value type: "self-cleavage"
  Reported: 1.53
- Mutation key: "U32G U38C"
  Value type: "self-cleavage"
  Reported: 0.12
- Mutation key: "A12C A26G"
  Value type: "self-cleavage"
  Reported: 0.01
- Mutation key: "A12C G22A"
  Value type: "self-cleavage"
  Reported: 0.03
- Mutation key: "G5A G35C"
  Value type: "self-cleavage"
  Reported: 0.08
- Mutation key: "C8U G36A"
  Value type: "self-cleavage"
  Reported: 0.77
- Mutation key: "C15U U32G"
  Value type: "self-cleavage"
  Reported: 0.12
- Mutation key: "G5U G30U"
  Value type: "self-cleavage"
  Reported: 0.26
- Mutation key: "A12U C37A"
  Value type: "self-cleavage"
  Reported: 0.05
- Mutation key: "U34C C46G"
  Value type: "self-cleavage"
  Reported: 0.1
- Mutation key: "A6C A26G"
  Value type: "self-cleavage"
  Reported: 0.65
- Mutation key: "A16G G36U"
  Value type: "self-cleavage"
  Reported: 0.04
- Mutation key: "G17A C42G"
  Value type: "self-cleavage"
  Reported: 0.12
- Mutation key: "G44C C45U"
  Value type: "self-cleavage"
  Reported: 0.06
- Mutation key: "A14C G33A"
  Value type: "self-cleavage"
  Reported: 0.06
- Mutation key: "U20A A26G"
  Value type: "self-cleavage"
  Reported: 0.91
- Mutation key: "G22A G27C"
  Value type: "self-cleavage"
  Reported: 0.9
- Mutation key: "C15G A26G"
  Value type: "self-cleavage"
  Reported: 0.03
- Mutation key: "A12U G40U"
  Value type: "self-cleavage"
  Reported: 0.17
- Mutation key: "A4U A25G"
  Value type: "self-cleavage"
  Reported: 0.08
- Mutation key: "G2A G40U"
  Value type: "self-cleavage"
  Reported: 0.29
- Mutation key: "G2U U9A"
  Value type: "self-cleavage"
  Reported: 0.06
- Mutation key: "A6U A14G"
  Value type: "self-cleavage"
  Reported: 0.1
- Mutation key: "A11U G44C"
  Value type: "self-cleavage"
  Reported: 0.03
- Mutation key: "G22A U28C"
  Value type: "self-cleavage"
  Reported: 0.51
- Mutation key: "A4U G7U"
  Value type: "self-cleavage"
  Reported: 0.2
- Mutation key: "C13A G17U"
  Value type: "self-cleavage"
  Reported: 0.11
- Mutation key: "G36C U38G"
  Value type: "self-cleavage"
  Reported: 0.02
- Mutation key: "A26G G27A"
  Value type: "self-cleavage"
  Reported: 0.99
- Mutation key: "C37G A39U"
  Value type: "self-cleavage"
  Reported: 0.08
- Mutation key: "A24G C45A"
  Value type: "self-cleavage"
  Reported: 1.47
- Mutation key: "G2C A26G"
  Value type: "self-cleavage"
  Reported: 0.11
- Mutation key: "A4G A26U"
  Value type: "self-cleavage"
  Reported: 0.39
- Mutation key: "A11U A39C"
  Value type: "self-cleavage"
  Reported: 0.07
- Mutation key: "G2U U32A"
  Value type: "self-cleavage"
  Reported: 0.03
- Mutation key: "G22U G29U"
  Value type: "self-cleavage"
  Reported: 0.72
- Mutation key: "A6U G21U"
  Value type: "self-cleavage"
  Reported: 0.76
- Mutation key: "A6C C37U"
  Value type: "self-cleavage"
  Reported: 0.12
- Mutation key: "G27U C46A"
  Value type: "self-cleavage"
  Reported: 1.11
- Mutation key: "A14G G21A"
  Value type: "self-cleavage"
  Reported: 0.71
- Mutation key: "C3U C18G"
  Value type: "self-cleavage"
  Reported: 0.09
- Mutation key: "U20C U34C"
  Value type: "self-cleavage"
  Reported: 0.18
- Mutation key: "G2U C37G"
  Value type: "self-cleavage"
  Reported: 0.04
- Mutation key: "G19C C45A"
  Value type: "self-cleavage"
  Reported: 0.47
- Mutation key: "C8A G44U"
  Value type: "self-cleavage"
  Reported: 0.43
- Mutation key: "G7U C15A"
  Value type: "self-cleavage"
  Reported: 0.16
- Mutation key: "C3G U43C"
  Value type: "self-cleavage"
  Reported: 0.14
- Mutation key: "C8U G19A"
  Value type: "self-cleavage"
  Reported: 0.35
- Mutation key: "A4U A11U"
  Value type: "self-cleavage"
  Reported: 0.04
- Mutation key: "G33U A41U"
  Value type: "self-cleavage"
  Reported: 0.09
- Mutation key: "A25U G30A"
  Value type: "self-cleavage"
  Reported: 1.17
- Mutation key: "C3A U32A"
  Value type: "self-cleavage"
  Reported: 0.12
- Mutation key: "G17C G44U"
  Value type: "self-cleavage"
  Reported: 0.07
- Mutation key: "G22C G29U"
  Value type: "self-cleavage"
  Reported: 0.38
- Mutation key: "C23U C42A"
  Value type: "self-cleavage"
  Reported: 0.25
- Mutation key: "G22U A39U"
  Value type: "self-cleavage"
  Reported: 1
- Mutation key: "G19A U28G"
  Value type: "self-cleavage"
  Reported: 1.04
- Mutation key: "U28A G30U"
  Value type: "self-cleavage"
  Reported: 0.77
- Mutation key: "G2C A6U"
  Value type: "self-cleavage"
  Reported: 0.14
- Mutation key: "G19C G21C"
  Value type: "self-cleavage"
  Reported: 0.27
